Task for the reader: assign each of the following compounds its reported INHIBITION.
system: Plasmodium berghei; assay: Screen against P. berghei liver stage (PbLuc), transformed with Luciferase, at 10uM; assay type: functional, HepG2; conditions: tested at 10 uM
Hit rate of the full screen: of about 69,000 compounds, about 8,600 (12%) showed an effect of 50% or more. This is one part of a sample in which strong results are shown more often than they occur.
Number plus unit, in that order.

compound=O=S1(=O)COCCN1Cc1ccc(F)c(F)c1 observed_measurement=29.9%
compound="Cn1nc(C2CCCN(Cc3ccccc3)C2)c2nccnc21 (stereo unspecified)" observed_measurement=64.9%
compound="Cn1nc(C2CCCN(Cc3ccc(F)c(F)c3)C2)c2nccnc21 (stereo unspecified)" observed_measurement=54.4%
compound="Fc1ccc(CN2CCCC(c3nnc(-c4cnccn4)o3)C2)cc1F (stereo unspecified)" observed_measurement=58.6%
compound="Cn1nc(C2CCCN(Cc3cc(F)cc(F)c3)C2)c2nccnc21 (stereo unspecified)" observed_measurement=36.4%

Turning to the following compound.
stdin: Fill in: INHIBITION of c1cc(CN2CCCC(c3nnc(-c4cnccn4)o3)C2)ccn1 (stereo unspecified) is ___
stdout: 26.8%
